Data credit: patent US20040235855A1

- system: human PLC-β2 (Homo sapiens)
- test summary: PLC assay using FlashPlates (96-well, immobilized [3H]PIP2 substrate)
- details: purified recombinant human PLC-β2 or cytosolic human PLC-β2; hydrolysis of [3H]PIP2
Task for the reader: assign each of the following compounds its reported IC50.
Numbers only, in µM.

- O=C(c1ccc(N2CCN(C(c3ccccc3)c3ccccc3)CC2)c(NC(=S)NCc2ccccc2)c1)N1CCNCC1 [Cpd 65]: 6.2
- O=C(NC(=S)Nc1cc(C(=O)N2CCNCC2)ccc1N1CCN(C(c2ccccc2)c2ccccc2)CC1)c1ccc(Cl)cc1 [Cpd 67]: 3.4
- NC(=O)c1ccc(N2CCN(C(c3ccccc3)c3ccccc3)CC2)c(NC(=O)NCc2ccccc2)c1 [Cpd 6]: 9

Okay, now this compound:
Query: Name the recorded IC50 for O=C(Nc1ccccc1F)Nc1cc(C(=O)N2CCNCC2)ccc1N1CCN(C(c2ccccc2)c2ccccc2)CC1 [Cpd 57] .
Response: 2.5

###

So I've got a bunch of compounds here, and I need their pIC50 values.
- system: human PLC-β2 (Homo sapiens, UniProt Q00722)
- Sequence (Q00722 whole entry): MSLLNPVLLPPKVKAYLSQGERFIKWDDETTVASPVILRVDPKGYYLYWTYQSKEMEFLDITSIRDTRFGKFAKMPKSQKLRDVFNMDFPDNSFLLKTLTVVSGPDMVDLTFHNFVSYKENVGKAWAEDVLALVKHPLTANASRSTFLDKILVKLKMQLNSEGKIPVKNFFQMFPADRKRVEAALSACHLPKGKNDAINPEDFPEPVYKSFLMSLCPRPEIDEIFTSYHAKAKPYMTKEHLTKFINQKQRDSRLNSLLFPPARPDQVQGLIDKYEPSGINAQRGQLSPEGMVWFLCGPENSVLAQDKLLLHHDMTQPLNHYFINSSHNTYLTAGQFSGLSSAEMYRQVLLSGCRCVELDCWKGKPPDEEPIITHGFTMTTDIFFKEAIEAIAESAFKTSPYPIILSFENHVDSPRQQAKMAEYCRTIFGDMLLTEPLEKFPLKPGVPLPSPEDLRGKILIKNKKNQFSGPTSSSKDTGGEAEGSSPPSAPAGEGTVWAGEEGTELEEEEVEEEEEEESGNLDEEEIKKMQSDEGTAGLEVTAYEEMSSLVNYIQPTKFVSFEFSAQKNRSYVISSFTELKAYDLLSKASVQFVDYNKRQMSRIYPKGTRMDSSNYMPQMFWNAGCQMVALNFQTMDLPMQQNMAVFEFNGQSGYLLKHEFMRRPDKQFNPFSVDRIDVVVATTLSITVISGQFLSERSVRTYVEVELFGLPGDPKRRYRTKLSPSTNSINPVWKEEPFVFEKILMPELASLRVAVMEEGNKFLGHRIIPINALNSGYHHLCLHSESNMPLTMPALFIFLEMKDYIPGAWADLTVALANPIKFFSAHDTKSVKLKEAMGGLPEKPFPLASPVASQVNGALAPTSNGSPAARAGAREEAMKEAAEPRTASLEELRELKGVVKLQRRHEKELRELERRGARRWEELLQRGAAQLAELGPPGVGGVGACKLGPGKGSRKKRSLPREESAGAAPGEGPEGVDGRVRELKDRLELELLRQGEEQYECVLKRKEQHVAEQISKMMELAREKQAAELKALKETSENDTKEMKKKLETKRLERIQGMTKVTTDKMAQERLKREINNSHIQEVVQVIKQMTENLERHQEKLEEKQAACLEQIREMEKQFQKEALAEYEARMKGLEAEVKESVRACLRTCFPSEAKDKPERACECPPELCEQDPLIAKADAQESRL
- test summary: PLC assay using FlashPlates (96-well, immobilized [3H]PIP2 substrate)
- details: purified recombinant human PLC-β2 or cytosolic human PLC-β2; hydrolysis of [3H]PIP2
Answers are plain numbers, as −log10 of the molar value.

* CN1CCN(C(=O)c2ccc(N3CCN(C(c4ccccc4)c4ccccc4)CC3)c(NC(=O)NC3CCCCC3)c2)CC1 [Cpd 28] | 5.25

Quick batch: pIC50 for everything below.
1. COc1ccc(NC(=O)Nc2cc(C(N)=O)ccc2N2CCN(C(c3ccc(F)cc3)c3ccc(F)cc3)CC2)c(OC)c1 [Cpd 18]
2. O=C(Nc1ccccc1)Nc1ccc(C(=O)N2CCNCC2)cc1N1CCN(C(c2ccc(F)cc2)c2ccc(F)cc2)CC1 [Cpd 90]
3. NC(=O)c1ccc(N2CCN(C(c3ccc(F)cc3)c3ccc(F)cc3)CC2)c(NC(=O)Nc2ccccc2F)c1 [Cpd 4]
4. C[C@H](NC(=O)Nc1cc(C(N)=O)ccc1N1CCN(C(c2ccccc2)c2ccccc2)CC1)c1ccccc1 [Cpd 11]
5. Cc1cc(C)cc(NC(=O)Nc2cc(C(N)=O)ccc2N2CCN(C(c3ccccc3)c3ccccc3)CC2)c1 [Cpd 7]

Response:
1: 5.34; 2: 6.01; 3: 5.68; 4: 5.08; 5: 5.28

Hi there! I need pIC50 for each item below, if you can.
1. Cc1cc(C)cc(NC(=O)Nc2cc(C(=O)N3CCNCC3)ccc2N2CCN(C(c3ccccc3)c3ccccc3)CC2)c1 [Cpd 42]
2. O=C(NCc1ccccc1)Nc1cc(C(=O)N2CCNCC2)ccc1N1CCN(C(c2ccccc2)c2ccccc2)CC1 [Cpd 39]

Response:
1. 5.25
2. 5.38

###

For each entry below, report its IC50 value.
- system: human PLC-β2 (Homo sapiens, UniProt Q00722)
- test summary: PLC assay using FlashPlates (96-well, immobilized [3H]PIP2 substrate)
- details: purified recombinant human PLC-β2 or cytosolic human PLC-β2; hydrolysis of [3H]PIP2

// solved cases for IC50 follow
• O=C(Nc1ccccc1)Nc1cc(C(=O)N2CCNCC2)ccc1N1CCN(C2CCCCC2)CC1 [Cpd 51] = > 25 µM
• NC(=O)c1ccc(N2CCCN(C(c3ccncc3)c3ccc(F)cc3)CC2)c(NC(=O)Nc2ccccc2)c1 (stereo not drawn) [Cpd 79] = > 10 µM

Okay, now this compound:
Query: Recorded IC50 of CC(C)(C)NC(=O)Nc1cc(C(=O)N2CCNCC2)ccc1N1CCN(C(c2ccccc2)c2ccccc2)CC1 [Cpd 62] , please.
Response: > 25 µM
